Please provide measured MIC for the entries that follow.
System: K. pneumoniae NVT1001 strains with carbapenemase plasmids
Experiment: Etest MIC of β-lactams, OmpK35/36 loss, ΔramR and/or carbapenemase (Table 9)
Assay type: cell-based, Klebsiella pneumoniae
Conditions: Klebsiella pneumoniae, IMP-8 on pACYC177; Δ35 (ΔompK35 mutant)
Experimental: DNA fragments of the resistance genes along with their flanking regions were amplified from clinical plasmids via PCR with specific primer pairs. The resulting PCR fragments were digested and then cloned into the plasmid pACYC177 or pACYC184. The resulting plasmids were then transformed into K. pneumoniae strain NVT1001 via electroporation. […] The MICs of antibiotics were determined using the Etest (Biodisk AB, Sweden) according to the manufacturer's instructions. […]
Provide only the numeric value, understood in µg/mL.

The compound listed as C[C@@H](O)[C@H]1C(=O)N2C(C(=O)O)=C(S[C@@H]3CN[C@H](C(=O)N(C)C)C3)[C@H](C)[C@H]12 shows MIC equal to 1

The compound listed as CO/N=C(\C(=O)N[C@@H]1C(=O)N2C(C(=O)[O-])=C(C[N+]3(C)CCCC3)CS[C@H]12)c1csc(N)n1 [Cefepime] shows MIC equal to 32

The compound listed as C[C@@H](O)[C@H]1C(=O)N2C(C(=O)O)=C(SCCN=CN)C[C@H]12 shows MIC equal to 4

The compound listed as CCO/N=C(\C(=O)N[C@@H]1C(=O)N2C(C(=O)[O-])=C(Sc3nc(-c4cc[n+](C)cc4)cs3)CS[C@H]12)c1nsc(N)n1 shows MIC equal to 64

The compound listed as C[C@@H](O)[C@H]1C(=O)N2C(C(=O)O)=C(S[C@@H]3CN[C@H](CNS(N)(=O)=O)C3)[C@H](C)[C@H]12 shows MIC equal to 2

The compound listed as C[C@H]1[C@H](NC(=O)/C(=N\OC(C)(C)C(=O)O)c2csc(N)n2)C(=O)N1S(=O)(=O)O shows MIC equal to 0.25

The compound listed as CO/N=C(\C(=O)N[C@@H]1C(=O)N2C(C(=O)O)=C(COC(C)=O)CS[C@H]12)c1csc(N)n1 shows MIC equal to 128

The compound listed as C[C@@H](O)[C@H]1C(=O)N2C(C(=O)O)=C(S[C@@H]3CN[C@H](C(=O)Nc4cccc(C(=O)O)c4)C3)[C@H](C)[C@H]12 shows MIC equal to 4

---

Please provide measured MIC for the entries that follow.
Tested on: K. pneumoniae NVT1001 strains with QnrB, QnrS or AAC(6′)-Ib-cr plasmids
Experiment: Etest MIC of quinolones, GyrA/ParC mutations, ΔramR and/or QnrB, QnrS or AAC(6′)-Ib-cr (Table 12)
Format: cell-based
Settings: Klebsiella pneumoniae, QnrS on pACYC177; ΔramR/S83I/S80I mutant

The compound listed as CCn1cc(C(=O)O)c(=O)c2cc(F)c(N3CCNCC3)cc21 shows MIC equal to > 256 µg/mL

The compound listed as CC1COc2c(N3CCN(C)CC3)c(F)cc3c(=O)c(C(=O)O)cn1c23 (centres unmarked) shows MIC equal to > 32 µg/mL

The compound listed as COc1c(N2C[C@@H]3CCCN[C@@H]3C2)c(F)cc2c(=O)c(C(=O)O)cn(C3CC3)c12 shows MIC equal to > 32 µg/mL

The compound listed as C[C@H]1COc2c(N3CCN(C)CC3)c(F)cc3c(=O)c(C(=O)O)cn1c23 shows MIC equal to > 32 µg/mL

The compound listed as CCn1cc(C(=O)O)c(=O)c2ccc(C)nc21 shows MIC equal to > 256 µg/mL

---

Please provide measured MIC for the entries that follow.
Test system: K. pneumoniae NVT1001 strains with ESBL or AmpC β-lactamase plasmids
Test: Etest MIC of β-lactams, OmpK35/36 loss, ΔramR and/or extended-spectrum β-lactamase and AmpC β-lactamase (Table 8)
Assay type: cell-based, Klebsiella pneumoniae
Conditions: Klebsiella pneumoniae, CTX-M-14 on pACYC177; WT (NVT1001); read-out: MIC

The compound listed as C[C@@H](O)[C@H]1C(=O)N2C(C(=O)O)=C(S[C@@H]3CN[C@H](C(=O)Nc4cccc(C(=O)O)c4)C3)[C@H](C)[C@H]12 shows MIC equal to 0.125 µg/mL

The compound listed as CO/N=C(\C(=O)N[C@@H]1C(=O)N2C(C(=O)O)=C(COC(N)=O)CS[C@H]12)c1ccco1 shows MIC equal to > 256 µg/mL

The compound listed as C[C@@H](O)[C@H]1C(=O)N2C(C(=O)O)=C(S[C@@H]3CN[C@H](CNS(N)(=O)=O)C3)[C@H](C)[C@H]12 shows MIC equal to 0.125 µg/mL

The compound listed as CC(C)(O/N=C(\C(=O)N[C@@H]1C(=O)N2C(C(=O)[O-])=C(C[n+]3ccccc3)CS[C@H]12)c1csc(N)n1)C(=O)O shows MIC equal to 1 µg/mL

---

Test system: A. baumannii KW1 and its GyrA/ParC mutants
Experiment: Etest MIC of quinolones, GyrA and/or ParC mutations (Table 17)
Type: cell-based
Conditions: Acinetobacter baumannii, S80L mutant
Note to self: use condition met only for MIC readings below 0.2 µg/mL; a reading exactly at 0.2 µg/mL still gets condition not met.

### Prompt Does the reported MIC of the following molecule sit strictly below 0.2 µg/mL? CC1COc2c(N3CCN(C)CC3)c(F)cc3c(=O)c(C(=O)O)cn1c23 (centres unmarked) [Ofloxacin, ofloxacin]
### Response condition not met

### Prompt Does the reported MIC of the following molecule sit strictly below 0.2 µg/mL? CCn1cc(C(=O)O)c(=O)c2cc(F)c(N3CCNCC3)cc21 [Norfloxacin, norfloxacin]
### Response condition not met

### Prompt Does the reported MIC of the following molecule sit strictly below 0.2 µg/mL? CCn1cc(C(=O)O)c(=O)c2ccc(C)nc21 [Nalidixic acid, nalidixic acid]
### Response condition not met

### Prompt Does the reported MIC of the following molecule sit strictly below 0.2 µg/mL? C[C@H]1COc2c(N3CCN(C)CC3)c(F)cc3c(=O)c(C(=O)O)cn1c23 [Levofloxacin, levofloxacin]
### Response condition met

### Prompt Does the reported MIC of the following molecule sit strictly below 0.2 µg/mL? COc1c(N2C[C@@H]3CCCN[C@@H]3C2)c(F)cc2c(=O)c(C(=O)O)cn(C3CC3)c12 [Moxifloxacin, moxifloxacin]
### Response condition not met

---

Please provide measured MIC for the entries that follow.
System: A. baumannii KW1 strains with tet resistance gene plasmids
Assay: Etest MIC of tetracyclines, tet resistance gene (Table 20)
Type: cell-based, Acinetobacter baumannii
Conditions: Acinetobacter baumannii, KW1, Tet(A) on pYMAb5
Provide only the numeric value, understood in µg/mL.

The compound listed as CN(C)c1cc(NC(=O)CNC(C)(C)C)c(O)c2c1C[C@H]1C[C@H]3[C@H](N(C)C)C(O)=C(C(N)=O)C(=O)[C@@]3(O)C(O)=C1C2=O shows MIC equal to 1

The compound listed as C[C@H]1c2cccc(O)c2C(=O)C2=C(O)[C@]3(O)C(=O)C(C(N)=O)=C(O)[C@@H](N(C)C)[C@@H]3[C@@H](O)[C@@H]21 shows MIC equal to 12

The compound listed as CN(C)[C@@H]1C(O)=C(C(N)=O)C(=O)[C@@]2(O)C(O)=C3C(=O)c4c(O)cccc4[C@@](C)(O)[C@H]3C[C@@H]12 shows MIC equal to 128

The compound listed as CN(C)c1ccc(O)c2c1C[C@H]1C[C@H]3[C@H](N(C)C)C(O)=C(C(N)=O)C(=O)[C@@]3(O)C(O)=C1C2=O shows MIC equal to 1.5

---

Tested on: K. pneumoniae NVT1001 strains with aminoglycoside resistance plasmids
Assay: Etest MIC of aminoglycosides, aminoglycoside-modifying enzyme or 16S rRNA methylase (Table 13)
Type: cell-based, Klebsiella pneumoniae
Settings: NVT1001 with AAC(3)-IVa on pACYC184
Description: DNA fragments of the resistance genes along with their flanking regions were amplified from clinical plasmids via PCR with specific primer pairs. The resulting PCR fragments were digested and then cloned into the plasmid pACYC177 or pACYC184. The resulting plasmids were then transformed into K. pneumoniae strain NVT1001 via electroporation. […] The MICs of antibiotics were determined using the Etest (Biodisk AB, Sweden) according to the manufacturer's instructions. […]
Recorded endpoint: MIC (mg/L)
Provide only the numeric value, understood in mg/L.

The compound listed as CN[C@@H]1[C@H](O[C@H]2[C@H](O[C@H]3[C@H](O)[C@@H](O)[C@H](N=C(N)N)[C@@H](O)[C@@H]3N=C(N)N)O[C@@H](C)[C@]2(O)C=O)O[C@@H](CO)[C@H](O)[C@H]1O shows MIC equal to 2

The compound listed as NCC[C@H](O)C(=O)N[C@@H]1C[C@H](N)[C@@H](O[C@H]2O[C@H](CN)[C@@H](O)[C@H](O)[C@H]2O)[C@H](O)[C@H]1O[C@H]1O[C@H](CO)[C@@H](O)[C@H](N)[C@H]1O shows MIC equal to 2
